- Tested on: CCRF-CEM leukemia
- Method: NCI-60 one-dose screen, 48 h
- Measurement context: 10 µM unless noted
This is part of a sample that, as a whole, favours compounds with a hit. Of some 83,000 tested, about 20% had one in any assay. Active and inactive are the calls of the source. Rule for the calls: active = growth percent below 10; inactive = the rest.
Outcomes: active, inactive

| Compound | Tested target | Group label |
| --- | --- | --- |
| O=C(CSc1ncc(-c2ccccc2)n1-c1ccccc1)Nc1ccc(-c2nc3ccccc3s2)cc1 | CCRF-CEM leukemia | inactive |
| O=C(O)CCNS(=O)(=O)c1ccc(-c2ccccc2)cc1 | CCRF-CEM leukemia | inactive |
| C[C@@H]1CN(c2nc3c(cc2F)c(=O)c(C(=O)O)cn3C(C)(C)C)C[C@H](C)N1 | CCRF-CEM leukemia | inactive |
| O=c1[nH]c(N2CCC(Cc3ccccc3)CC2)nc2sc3c(c12)CCCC3 | CCRF-CEM leukemia | inactive |
| CCOC(=O)CCC(=O)O[C@H]1[C@H](O[C@@H]2[C@@H](C)[C@H](O[C@H]3C[C@@](C)(OC)[C@@H](O)[C@H](C)O3)[C@@H](C)C(=O)O[C@H](CC)[C@@](C)(O)[C@H](O)[C@@H](C)C(=O)[C@H](C)C[C@@]2(C)O)O[C@H](C)C[C@@H]1N(C)C | CCRF-CEM leukemia | inactive |
| COc1ccc(-c2nc3sc4c(c3c(=O)[nH]2)CCCCCC4)cc1 | CCRF-CEM leukemia | inactive |
| COc1cc(-c2n[nH]nc2-c2ccccn2)cc(OC)c1OC | CCRF-CEM leukemia | inactive |
| Cc1ccc(S(=O)(=O)NCCN2c3nc4ccccc4cc3Sc3cc4ccccc4nc32)cc1 | CCRF-CEM leukemia | inactive |
| Cn1cc(NC(=O)Nc2cc(C(=O)O)n(C)c2)cc1C(=O)O | CCRF-CEM leukemia | inactive |
| COc1ccc(Oc2ccccc2NC(=O)CNC(=O)c2cccc3ccccc23)cc1 | CCRF-CEM leukemia | inactive |
| Nc1nc(NC2CC2)c2ncn(C3C=CC(CO)C3)c2n1 (configuration not stated) | CCRF-CEM leukemia | inactive |
| Nc1nc(Nc2ccccc2SSc2ccccc2Nc2nc(N)nc(C(Cl)(Cl)Cl)n2)nc(C(Cl)(Cl)Cl)n1 | CCRF-CEM leukemia | inactive |
| Cc1cnc2nc(-c3ccc(N(C)C)cc3)cn2c1 | CCRF-CEM leukemia | inactive |
| C[C@@H]1C[C@@H]([C@@H](CC2CC(=O)NC(=O)C2)OC(=O)CC(=O)c2ccccc2)C(=O)[C@@H](C)C1 | CCRF-CEM leukemia | inactive |
| Cc1c2oc3c(C)ccc(C(=O)OC(C)C4NC(=O)C(C(C)C)N(C)C(=O)CN(C)C(=O)C5CCCN5C(=O)C(C(C)C)NC4=O)c3nc-2c(C(=O)OC(C)C2NC(=O)C(C(C)C)N(C)C(=O)CN(C)C(=O)C3CCCN3C(=O)C(C(C)C)NC2=O)c(N)c1=O (configuration not stated) | CCRF-CEM leukemia | inactive |
| O=C(COc1ccc(/C=C2\Cc3ccccc3C2=O)cc1)c1ccc(Cl)cc1 | CCRF-CEM leukemia | inactive |
| O=c1oc2c(cc1-c1ccc([N+](=O)[O-])cc1)C(O)Oc1ccccc1-2 (configuration not stated) | CCRF-CEM leukemia | inactive |
| C=CCNC(=O)/C(=C/c1cccc([N+](=O)[O-])c1)NC(=O)c1ccccc1 | CCRF-CEM leukemia | inactive |
| CN1CCN(c2nc3scc(-c4ccccc4)c3c(=O)[nH]2)CC1 | CCRF-CEM leukemia | inactive |
| O=C(Nc1nn2c(-c3cc(C(F)(F)F)cc(C(F)(F)F)c3)nnc2s1)C1CCCC1 | CCRF-CEM leukemia | inactive |
| O=CN1N=C(c2ccc(Cl)cc2)CC1c1cccc(Nc2ccnc3cc(Cl)ccc23)c1 (configuration not stated) | CCRF-CEM leukemia | inactive |
| CCOC(=O)CCN(c1c(Cl)ssc1=O)C(C)C | CCRF-CEM leukemia | active |
| COc1cc(-c2nnc(-c3nc(-c4cc(OC)c(OC)c(OC)c4)n4ccccc34)o2)ccc1N | CCRF-CEM leukemia | inactive |
| C/C(=C\CCc1ccoc1)CC/C=C(\C)CCCC1COC(=O)C1 (configuration not stated) | CCRF-CEM leukemia | inactive |
| CNCCCn1c2c(c3ccc(F)cc3c1=O)C(=O)c1cc(OC)cnc1-2 | CCRF-CEM leukemia | active |
| C=C1CCC2C(C)(COC(=O)CC)C(OC(=O)CC)CCC2(C)C1C/C=C1/C(=O)OCC1OC(=O)CC (configuration not stated) | CCRF-CEM leukemia | active |
| Cc1ccc2c(c1)C(=O)/C(=C\Nc1ccc(C(N)=O)cc1)C(O)O2 (configuration not stated) | CCRF-CEM leukemia | inactive |
| COc1ccc(CNC(=O)c2c(C)n([O-])c3cc(F)c(F)cc3[n+]2=O)cc1 | CCRF-CEM leukemia | inactive |
| CCCCCN(CCCCC)CCCNc1c2c(nc3ccc(Cl)cc13)CCCC2 | CCRF-CEM leukemia | inactive |
| CC[C@@H](c1ccc(O)c(O)c1)[C@@H](CC)c1ccc(O)c(O)c1 | CCRF-CEM leukemia | active |
| Nc1nc(Nc2ccccc2SSc2ccccc2Nc2nc(N)nc(-c3ccc(I)cc3)n2)nc(-c2ccc(I)cc2)n1 | CCRF-CEM leukemia | inactive |
| CCN(CC)CCNCC(=O)Oc1ccc(/C=C/C(=O)CC(=O)/C=C/c2ccc(OC(=O)CNCCN(CC)CC)c(OC)c2)cc1OC | CCRF-CEM leukemia | active |
| c1ccc2c(-c3nc4ccccc4[nH]3)cccc2c1 | CCRF-CEM leukemia | inactive |
| COc1cccc(/C=N\NC(=O)c2ccncc2)c1O | CCRF-CEM leukemia | inactive |
| CCOC(=O)C(Br)=P(c1ccccc1)(c1ccccc1)c1ccccc1 | CCRF-CEM leukemia | active |
| O=C(Nc1ccccc1)c1cc(-n2cnc([N+](=O)[O-])c2)cc(-n2cnc([N+](=O)[O-])c2)n1 | CCRF-CEM leukemia | inactive |
| Cc1ccc(S(=O)(=O)N2CCN(C(=O)CSc3nc4ccc(C)cc4[nH]3)CC2)cc1 | CCRF-CEM leukemia | inactive |
